Provenance of the data: patent US20120122727A1

Catalogue of Gene expression BQ174991 average readings, one per entry.
# System: primary mouse hepatocytes
# EXPERIMENTAL_PROTOCOL: Gene expression (Affymetrix Mouse Genome 430 2.0) in primary mouse hepatocytes, true vs false GTX, 24 h and 48 h
# SETTINGS: 48 h; log2, corrected for vehicle control

Illustrative cases are given below, each with its answer.
CHEMICAL_STRUCTURE	Gene expression BQ174991 average
Nc1ccc([N+](=O)[O-])cc1N	0.4017
CN(C)N=O	−0.28
CC(=O)Nc1ccc2c(c1)Cc1ccccc1-2	−0.3426

# return recorded Gene expression BQ174991 average for input O=c1c(O)c(-c2ccc(O)c(O)c2)oc2cc(O)cc(O)c12
0.5432

// Input: c1ccc2c(c1)cc1ccc3cccc4ccc2c1c34 . Output its Gene expression BQ174991 average only.
−1.408

Name the recorded Gene expression BQ174991 average of the item Nc1ccccc1C(=O)O in your answer.
0.4039
